Cited source for all entries: the RNAGym collection of RNA variant scans (doi:10.1126/science.aae0568)

B1: tRNA (parent)
chain: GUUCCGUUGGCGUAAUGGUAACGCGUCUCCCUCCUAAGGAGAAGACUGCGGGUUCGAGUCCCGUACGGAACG

variants of: B1; test: yeast fitness relative to wild type (ratio to wild type); higher = fitter; tRNA-Arg(CCU), competitive growth, 37 C, YPD
This sample holds only a part of the variants without activity.
Measured yeast fitness, listed per entry for reference.
Could you respond with only the numeric value?

In: For the variant shown here, C31G A36U A65U , give the reported yeast fitness.
Out: 0.517

In: For the variant shown here, C60U A69G , give the reported yeast fitness.
Out: 0.572

In: For the variant shown here, C5U C24U A40C , give the reported yeast fitness.
Out: 0.634

Continue with the next variant.
In: For the variant shown here, G6C A40G C60U C61U , give the reported yeast fitness.
Out: 0.513
